Reported Emax is given for each of the following molecules.
target: SIRT1 (Homo sapiens, UniProt Q96EB6); experiment: Trp mass spectrometry assay of SIRT1 activity; format: biochemical; settings: Trp assay; percent maximum fold activation; read-out: Trp % Fold Act
Sequence (Q96EB6 whole entry): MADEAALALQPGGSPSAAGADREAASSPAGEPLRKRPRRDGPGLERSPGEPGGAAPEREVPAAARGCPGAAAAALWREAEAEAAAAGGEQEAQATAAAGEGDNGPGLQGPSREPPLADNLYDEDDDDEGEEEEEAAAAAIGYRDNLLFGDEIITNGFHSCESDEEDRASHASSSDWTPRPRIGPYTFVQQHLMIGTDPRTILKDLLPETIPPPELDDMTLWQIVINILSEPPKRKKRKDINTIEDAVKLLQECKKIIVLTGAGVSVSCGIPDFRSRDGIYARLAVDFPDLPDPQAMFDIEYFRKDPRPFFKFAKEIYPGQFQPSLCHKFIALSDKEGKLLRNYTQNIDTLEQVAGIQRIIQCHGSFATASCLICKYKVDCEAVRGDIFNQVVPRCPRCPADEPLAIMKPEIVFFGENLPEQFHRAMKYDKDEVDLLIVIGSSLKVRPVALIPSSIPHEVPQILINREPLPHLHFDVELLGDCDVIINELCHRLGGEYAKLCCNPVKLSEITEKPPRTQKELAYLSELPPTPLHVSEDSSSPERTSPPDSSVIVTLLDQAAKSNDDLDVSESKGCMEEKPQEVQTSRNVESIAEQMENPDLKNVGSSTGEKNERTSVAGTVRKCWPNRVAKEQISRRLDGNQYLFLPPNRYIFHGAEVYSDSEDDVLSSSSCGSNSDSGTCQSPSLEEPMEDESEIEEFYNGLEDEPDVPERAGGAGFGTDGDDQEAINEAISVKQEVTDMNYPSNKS

Completed entries (count: 5):
Molecule: O=C(Nc1cccnc1)c1cnc2ccc(N3CC(F)(F)C3)nn12 [Compound 913]
Measured Parameter: Emax
Result: < 350%
--
Molecule: O=C(Nc1ccncn1)c1cnc2ccc(N3CCCC3)nn12 [Compound 894]
Measured Parameter: Emax
Result: < 350%
--
Molecule: Cc1cc(NC(=O)c2cnc3ccc(-c4ccccc4OC(F)(F)F)nn23)ccn1 [Compound 364]
Measured Parameter: Emax
Result: ≥ 350%
--
Molecule: Cc1nc(NC(=O)c2cnc3ccc(N4CCCC4C(F)(F)F)nn23)sc1C (centres unmarked) [Compound 969]
Measured Parameter: Emax
Result: ≥ 350%
--
Molecule: O=C(Nc1cccnc1)c1cnc2ccc(N3CC[C@H](O)C3)nn12 [Compound 982]
Measured Parameter: Emax
Result: < 350%

[in] # lookup: Emax of O=C(Nc1cnc(OCC(O)CO)cn1)c1cnc2ccc(-c3ccccc3C(F)(F)F)nn12 (centres unmarked) [Compound 297]
[out] < 350%

[in] Cool, now Cc1nc2ccc(N3CC[C@H](N(C)C)C3)nn2c1C(=O)Nc1ccncn1 [Compound 881]
[out] < 350%

[in] // same read-out, input: CC1CCN(c2ccc3ncc(C(=O)Nc4ccncn4)n3n2)C1 (centres unmarked) [Compound 992]
[out] < 350%

[in] Also, O=C(Nc1cccnc1)c1cnc2ccc(N3CCC(F)(F)C3)nn12 [Compound 908] please.
[out] < 350%
